target: Human plasma kallikrein (Homo sapiens, UniProt P03952); construct: yields a heavy chain (371 amino acids) and a light chain (248 amino acids); test: Plasma Kallikrein Assay; conditions: purified Human plasma kallikrein 0.5 nM, substrate Acetyl-K-P-R-AFC, HEPES pH 7.4, fluorescence 405 Ex/510 Em; read-out: PKal IC50
Sequence (P03952 391-638 limits assumed): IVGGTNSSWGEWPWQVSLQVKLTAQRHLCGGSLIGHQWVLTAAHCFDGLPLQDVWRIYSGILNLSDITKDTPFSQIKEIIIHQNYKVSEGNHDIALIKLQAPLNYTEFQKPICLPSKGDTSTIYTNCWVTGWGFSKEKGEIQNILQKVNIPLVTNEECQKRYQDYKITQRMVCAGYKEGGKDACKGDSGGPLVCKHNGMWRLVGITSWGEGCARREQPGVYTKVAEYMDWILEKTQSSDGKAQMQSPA
Sequence (P03952 20-390 partner limits assumed): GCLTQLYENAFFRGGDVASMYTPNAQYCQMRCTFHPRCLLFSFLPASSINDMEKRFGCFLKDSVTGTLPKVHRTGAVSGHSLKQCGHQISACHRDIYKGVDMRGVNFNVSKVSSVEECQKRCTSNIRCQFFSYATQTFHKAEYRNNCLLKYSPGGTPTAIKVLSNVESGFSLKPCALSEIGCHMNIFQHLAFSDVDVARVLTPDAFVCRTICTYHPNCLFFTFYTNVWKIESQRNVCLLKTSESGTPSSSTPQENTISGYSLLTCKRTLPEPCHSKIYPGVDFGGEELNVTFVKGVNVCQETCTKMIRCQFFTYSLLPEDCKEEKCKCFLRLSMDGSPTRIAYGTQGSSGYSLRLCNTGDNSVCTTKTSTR
Quantity name: IC50 (nM)

Example results:
COc1ccc(-c2cc(N)n(CC(=O)N3CC[C@@]4(C3)OC(=O)Nc3ccc(Cl)c(F)c34)n2)cc1 [Example 6]    10.1
Nc1c2c(nn1CC(=O)N1CC[C@@]3(C1)OC(=O)Nc1ccc(Cl)c(F)c13)CCC2 [Example 13]    38.8
Nc1cc(-c2ccc3c(c2)OCO3)nn1CC(=O)N1CC[C@@]2(C1)OC(=O)Nc1ccc(Cl)c(F)c12 [Example 2]    8
Nc1c(Cl)c(-c2ccc(F)cc2F)nn1CC(=O)N1CC[C@@]2(C1)OC(=O)Nc1ccc(Cl)c(F)c12 [Example 19]    30.3
Nc1cc(-c2ccc(F)c(F)c2)nn1CC(=O)N1CC[C@@]2(C1)OC(=O)Nc1ccc(Cl)c(F)c12 [Example 47]    14.3

A = Nc1cc(-c2ccccn2)nn1CC(=O)N1CC[C@@]2(C1)OC(=O)Nc1ccc(Cl)c(F)c12 [Example 38]
B = Nc1c(Cl)c(-c2ncc(F)cc2F)nn1CC(=O)N1CCC[C@@]2(C1)OC(=O)Nc1ccc(Cl)c(F)c12 [Example 33]
Record comparison, field IC50: mark the lower of A and B . # answer = label of selected item
B

P = Nc1cc(-c2cccc(Cl)c2)nn1CC(=O)N1CCC[C@@]2(C1)OC(=O)Nc1ccc(Cl)c(F)c12 [Example 16]
Q = Nc1c(Cl)c(C2CC2)nn1CC(=O)N1CCC[C@@]2(C1)OC(=O)Nc1ccc(Cl)c(F)c12 [Example 29]
Short answer wanted: higher IC50, P or Q ? # answer = label of selected item
Q

---

target: Human plasma kallikrein (Homo sapiens); construct: yields a heavy chain (371 amino acids) and a light chain (248 amino acids); assay: Plasma Kallikrein Assay; details: purified Human plasma kallikrein 0.5 nM, substrate Acetyl-K-P-R-AFC, HEPES pH 7.4, fluorescence 405 Ex/510 Em; read-out: PKal IC50
pIC50: −log10 of the molar value.
Quantity name: pIC50

I = Nc1c(Cl)c(-c2ccccc2)nn1CC(=O)N1CCC[C@@]2(C1)OC(=O)Nc1ccc(Cl)c(F)c12 [Example 22]
II = CC1(C)C(c2cc(N)n(CC(=O)N3CC[C@@]4(C3)OC(=O)Nc3ccc(Cl)c(F)c34)n2)C1(C)C [Example 53]
Short answer wanted: higher pIC50, I or II ? # answer = label of selected item
II
(II: 7.94, I: 7.58)

---

target: Human plasma kallikrein (Homo sapiens, UniProt P03952); construct: yields a heavy chain (371 amino acids) and a light chain (248 amino acids); test: Plasma Kallikrein Assay; settings: purified Human plasma kallikrein 0.5 nM, substrate Acetyl-K-P-R-AFC, HEPES pH 7.4, fluorescence 405 Ex/510 Em; read-out: PKal IC50
Quantity name: IC50 (µM)

1 = Nc1c(Cl)c(-c2ccc(F)cc2F)nn1CC(=O)N1CCC[C@@]2(C1)OC(=O)Nc1ccc(Cl)c(F)c12
2 = COc1ccccc1-c1cc(N)n(CC(=O)N2CC[C@@]3(C2)OC(=O)Nc2ccc(Cl)c(F)c23)n1
Record comparison, field IC50: mark the lower of 1 and 2 . # answer = label of selected item
2
(2: 0.0066 µM, 1: 0.019 µM)

A = Nc1cc(-c2ccccc2Cl)nn1CC(=O)N1CC[C@@]2(C1)OC(=O)Nc1ccc(Cl)c(F)c12
B = Nc1cc(C2CCCC2)nn1CC(=O)N1CC[C@@]2(C1)OC(=O)Nc1ccc(Cl)c(F)c12
Short answer wanted: higher IC50, A or B ? # answer = label of selected item
B

1 = Nc1cc(-c2cccs2)nn1CC(=O)N1CC[C@@]2(C1)OC(=O)Nc1ccc(Cl)c(F)c12
2 = Cc1cc(-c2cc(N)n(CC(=O)N3CC[C@@]4(C3)OC(=O)Nc3ccc(Cl)c(F)c34)n2)no1
Record comparison, field IC50: mark the lower of 1 and 2 . # answer = label of selected item
1

---

target: human factor XIa (Homo sapiens)
Sequence (P03951 388-625 limits assumed): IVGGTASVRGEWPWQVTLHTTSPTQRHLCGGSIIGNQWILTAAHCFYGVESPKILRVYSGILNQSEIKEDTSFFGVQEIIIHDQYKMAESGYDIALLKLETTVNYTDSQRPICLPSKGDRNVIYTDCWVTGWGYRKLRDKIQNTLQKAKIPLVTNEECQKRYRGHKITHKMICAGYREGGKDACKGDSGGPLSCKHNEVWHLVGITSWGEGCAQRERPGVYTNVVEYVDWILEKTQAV
Sequence (P03951 19-387 partner limits assumed): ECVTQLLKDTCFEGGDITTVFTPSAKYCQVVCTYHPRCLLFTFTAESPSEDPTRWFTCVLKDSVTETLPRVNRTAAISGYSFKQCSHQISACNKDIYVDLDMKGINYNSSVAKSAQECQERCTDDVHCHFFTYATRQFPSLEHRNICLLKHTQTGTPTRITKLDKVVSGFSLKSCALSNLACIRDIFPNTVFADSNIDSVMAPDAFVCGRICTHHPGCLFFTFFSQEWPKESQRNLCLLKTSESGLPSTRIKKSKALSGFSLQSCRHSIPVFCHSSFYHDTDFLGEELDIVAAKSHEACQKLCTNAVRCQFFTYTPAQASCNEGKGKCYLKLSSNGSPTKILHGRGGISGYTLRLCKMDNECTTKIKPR
Quantity name: IC50 (nM)

Example results:
Nc1c(Cl)c(-c2ccc(F)cc2F)nn1CC(=O)N1CC[C@@]2(C1)OC(=O)Nc1ccc(Cl)c(F)c12 [Example 19]    134
Nc1cc(-c2ccccc2I)nn1CC(=O)N1CC[C@@]2(C1)OC(=O)Nc1ccc(Cl)c(F)c12 [Example 58]    430
Nc1cc(-c2ccc(OC(F)F)cc2)nn1CC(=O)N1CC[C@@]2(C1)OC(=O)Nc1ccc(Cl)c(F)c12 [Example 66]    640

P = Nc1cc(-c2ccc(F)cc2)nn1CC(=O)N1CC[C@@]2(C1)OC(=O)Nc1ccc(Cl)c(F)c12 [Example 1, 2,2,2-trifluoroacetate]
Q = Nc1cc(-c2ccccc2)nn1CC(=O)N1CC[C@@]2(C1)OC(=O)Nc1ccc(Cl)c(F)c12 [Example 24]
R = Nc1cc(C2CCCC2)nn1CC(=O)N1CC[C@@]2(C1)OC(=O)Nc1ccc(Cl)c(F)c12 [Example 4]
S = Nc1c2c(nn1CC(=O)N1CC[C@@]3(C1)OC(=O)Nc1ccc(Cl)c(F)c13)-c1ccccc1C2 [Example 14]
# rank by IC50, ascending (min first) A complete answer lists every label in the requested sequence.
S, Q, R, P
(S: 29 nM, Q: 114 nM, R: 315 nM, P: 513 nM)

---

Here's a batch of molecules along with measured IC50 for human factor XIa (Homo sapiens).
Quantity name: IC50 (nM)

Nc1cc(-c2ccco2)nn1CC(=O)N1CC[C@@]2(C1)OC(=O)Nc1ccc(Cl)c(F)c12 [Example 40]    225

A = Cc1ccccc1-c1cc(N)n(CC(=O)N2CC[C@@]3(C2)OC(=O)Nc2ccc(Cl)c(F)c23)n1 [Example 54]
B = Nc1cc(C2CC2)nn1CC(=O)N1CCC[C@@]2(C1)OC(=O)Nc1ccc(Cl)c(F)c12 [Example 28]
Short answer wanted: higher IC50, A or B ? # answer = label of selected item
A

---

target: Human plasma kallikrein (Homo sapiens); construct: yields a heavy chain (371 amino acids) and a light chain (248 amino acids); test: Plasma Kallikrein Assay; details: purified Human plasma kallikrein 0.5 nM, substrate Acetyl-K-P-R-AFC, HEPES pH 7.4, fluorescence 405 Ex/510 Em; read-out: PKal IC50
pIC50: −log10 of the molar value.
Quantity name: pIC50

Nc1cc(-c2cccnc2)nn1CC(=O)N1CC[C@@]2(C1)OC(=O)Nc1ccc(Cl)c(F)c12    7.89

P = Cc1ccc(-c2cc(N)n(CC(=O)N3CC[C@@]4(C3)OC(=O)Nc3ccc(Cl)c(F)c34)n2)n1C
Q = Nc1cc(-c2ccccc2)nn1CC(=O)N1CCC[C@@]2(C1)OC(=O)Nc1ccc(Cl)c(F)c12
R = Nc1cc(-c2ccccc2C(F)(F)F)nn1CC(=O)N1CC[C@@]2(C1)OC(=O)Nc1ccc(Cl)c(F)c12
Rank by pIC50 (largest to smallest). A complete answer lists every label in the requested sequence.
R, Q, P

---

biological target: Human plasma kallikrein (Homo sapiens, UniProt P03952); construct: yields a heavy chain (371 amino acids) and a light chain (248 amino acids); test: Plasma Kallikrein Assay; settings: purified Human plasma kallikrein 0.5 nM, substrate Acetyl-K-P-R-AFC, HEPES pH 7.4, fluorescence 405 Ex/510 Em; read-out: PKal IC50
pIC50: −log10 of the molar value.
Quantity name: pIC50

Example results:
Nc1c(Cl)c(-c2ncc(F)cc2F)nn1CC(=O)N1CC[C@@]2(C1)OC(=O)Nc1ccc(Cl)c(F)c12    7.49
Nc1cc(-c2ccc(F)cc2)nn1CC(=O)N1CCC[C@@]2(C1)OC(=O)Nc1ccc(Cl)c(F)c12    7.68
Nc1cc(-c2ccccc2Br)nn1CC(=O)N1CC[C@@]2(C1)OC(=O)Nc1ccc(Cl)c(F)c12    8.60

A = Nc1cc(-c2ccc(F)cc2)nn1CC(=O)N1CC[C@@]2(C1)OC(=O)Nc1ccc(Cl)c(F)c12 [Example 1, 2,2,2-trifluoroacetate]
B = Nc1cc(-c2ccccc2OC(F)(F)F)nn1CC(=O)N1CC[C@@]2(C1)OC(=O)Nc1ccc(Cl)c(F)c12
C = Nc1c(F)c(-c2ccc(F)cc2F)nn1CC(=O)N1CCC[C@@]2(C1)OC(=O)Nc1ccc(Cl)c(F)c12
# rank by pIC50, ascending (min first) A complete answer lists every label in the requested sequence.
C, A, B
(C: 7.43, A: 8.00, B: 8.60)

---

molecular target: Human plasma kallikrein (Homo sapiens); construct: yields a heavy chain (371 amino acids) and a light chain (248 amino acids); experiment: Plasma Kallikrein Assay; conditions: purified Human plasma kallikrein 0.5 nM, substrate Acetyl-K-P-R-AFC, HEPES pH 7.4, fluorescence 405 Ex/510 Em; read-out: PKal IC50
Quantity name: IC50 (nM)

Example results:
Nc1cc(-c2ccccc2F)nn1CC(=O)N1CC[C@@]2(C1)OC(=O)Nc1ccc(Cl)c(F)c12 [Example 56]    4.6
Nc1cc(C2CCOCC2)nn1CC(=O)N1CC[C@@]2(C1)OC(=O)Nc1ccc(Cl)c(F)c12 [Example 5]    30.6
Nc1c2c(nn1CC(=O)N1CCC[C@@]3(C1)OC(=O)Nc1ccc(Cl)c(F)c13)CCCC2 [Example 26]    22.2
Cc1cccc(-c2cc(N)n(CC(=O)N3CC[C@@]4(C3)OC(=O)Nc3ccc(Cl)c(F)c34)n2)c1 [Example 42]    15.1
Nc1cc(-c2cccc(F)c2)nn1CC(=O)N1CC[C@@]2(C1)OC(=O)Nc1ccc(Cl)c(F)c12 [Example 64]    17
Nc1cc(C2CCCCC2)nn1CC(=O)N1CC[C@@]2(C1)OC(=O)Nc1ccc(Cl)c(F)c12 [Example 52]    20.7

A = COc1cccc(OC)c1-c1cc(N)n(CC(=O)N2CC[C@@]3(C2)OC(=O)Nc2ccc(Cl)c(F)c23)n1 [Example 51]
B = Nc1cc(-c2c(F)cccc2F)nn1CC(=O)N1CC[C@@]2(C1)OC(=O)Nc1ccc(Cl)c(F)c12 [Example 37]
C = N#Cc1ccc(-c2cc(N)n(CC(=O)N3CC[C@@]4(C3)OC(=O)Nc3ccc(Cl)c(F)c34)n2)cc1 [Example 63]
Rank by IC50 (largest to smallest). A complete answer lists every label in the requested sequence.
A, C, B
